Tested on: T1, Human B7-H4 with HisFlag tag (huB7-H4-his) (human, UniProt Q7Z7D3 25-258)
T1 construct: also called HuB7-H4 His protein; huB7-H4-HF
T1 sequence: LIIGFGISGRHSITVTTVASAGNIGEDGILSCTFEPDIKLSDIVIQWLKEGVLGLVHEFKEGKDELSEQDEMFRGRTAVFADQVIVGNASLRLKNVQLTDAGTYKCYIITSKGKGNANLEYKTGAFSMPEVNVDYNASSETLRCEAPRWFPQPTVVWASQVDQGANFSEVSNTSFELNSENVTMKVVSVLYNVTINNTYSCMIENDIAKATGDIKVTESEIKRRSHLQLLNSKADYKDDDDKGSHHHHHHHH
Method description: indirect ELISA, plate coated with HuB7-H4 His
Assay endpoint: EC50 (nM)
Dear colleague, please return just the value in nM, with no unit written.

binder="chimeric antibody 1C9 (antibody, human IgG1, V domains shown) VH: QVQLQQPGSVLVRPGASVKLSCKASGDTFTTYWMNWVKQRPGQGLEWIGGIYLNSGSSEYNEKFKGKATLSVDTSSSTAYMDLSSLTSEDSAVYYCARDSRFSYWGQGTLVTVSA VL: DIVMTQSHKFLSTSVGDRVSITCKASQDVSTAVAWYQQKPGQSPELLISSASYRYTGVPDRFTGSGSGTDFTFTISSVQAEDLAVYYCQQHYNTPLTFGAGTQLELK" observed=0.068
binder="chimeric antibody 2F8 (antibody, human IgG1, V domains shown, also called ch-2F8) VH: QVQLQQPGSVLVRPGASVKLSCKASGYTFTNSWMNWAKLRPGQGLEWIGGIYPNSGNIEYNEKFKGKATLTVDTSSSTAYMDLTSLTSEDSAVYYCARDSRFSYWGQGTLVTVSA VL: DIVMTQSHKFMSTSVGDRVSITCKASQDVRTAVAWYQQKPGQSPKLLISSTSYRYTGVPDRFTGSGSGTDFTFIISSVQAEDLAVYYCQQHYSTPLTFGAGTKLELK" observed=0.067
binder="chimeric antibody 2F4 (antibody, human IgG1, V domains shown, also called ch-2F4) VH: EVQLVESGGGLVKPGGSLKLSCAASGLTFSRYAMSWVRQTPEKRLEWVAGISSGGSYTYYSDTVKGRFTISRDNVRNTLYLQMSSLRSEDTAMYYCGREYGRDYWGQGTSVTVSS VL: DILMTQSPSSMSVSLGDTVSITCHASQGINSNIGWLQQKPGKSFKGLIYHGTNLEDGVPSRFSGSGSGTDYSLTISSLESEDFADYYCVQYAQFPRTFGGGTTLEIK" observed=0.056

We now examine a further binder.
Quick note, EC50 for chimeric antibody 2F7 (antibody, human IgG1, V domains shown, also called ch-2F7) VH: EVQLVESGGGLVQPGGSLKLSCAASGFTFSNYYMSWVRQTPEKRLEWVAYVSSGGGSTYYSDSVKGRFTISRDNAKNTLYLQMSSLKPEDTAMYYCTRESYSQGNYFDYWGQGTTLTVSS VL: DIVMTQSPATLSVTPGDRVSLSCRASQSISDYLHWYQQKSHESPRLLIKFASQSISGIPSRFSGSGSGSDFTLSINSVEPEDVGVYYCQNGHSFSLTFGAGTKLELK landed at 0.17
